Recorded values, source PubChem BioAssay AID2305.

Recorded IC50 for the following compounds
Test system: P. falciparum 3D7 growth, pLDH absorbance
assayMethodText: blood-stage malaria parasite growth potency – strain 3D7, dose response (AID 2305)
property: IC50 (µM)

> print(dat)
                                   compound  testvalue
1  OC(CNC1CCCCCCC1)c1ccc(Cl)c(Cl)c1 (stereo unspecified)       0.21
2  Cc1ccc(C)c(NC(=O)NCCNc2ccnc(Nc3ccc(F)cc3)n2)c1       0.82
3  c1ccc2[nH]c(Nc3ccc(Nc4nc5ccccc5[nH]4)cc3)nc2c1       0.78
4  C=CC(=O)Nc1ccc(Cl)cc1C(O)c1ccccc1 (stereo unspecified)       0.18
5     CC1(C)N=C(N)N=C(N)N1OCCNCc1ccc(Cl)cc1       0.16
6  COc1ccc(NC(=O)CSc2nc(-c3ccccc3Cl)ns2)cc1OC       0.76

---

Tested on: P. falciparum 3D7 growth, pLDH absorbance
assayMethodText: blood-stage malaria parasite growth potency – strain 3D7, dose response (AID 2305)
Recorded IC50 for the following compounds
property: IC50 (nM)

> print(dat)
                                    compound  unitabbrev  testvalue
 1  COc1ccc2nccc([C@@H](O)CN3CCC(NC(=O)C(c4ccsc4)N4CCN(c5ccccc5)CC4)CC3)c2c1 (some centres undefined)          nM        440
 2  Cc1c(S(=O)(=O)Nc2ccc3ccn(CCN(C)C)c3c2)sc2ccc(Cl)cc12          nM        920
 3  O=S(=O)(NC1CCC(CN2CCC(c3c[nH]c4ccccc34)CC2)CC1)c1ccc(Cl)c(Cl)c1 (centres undefined)          nM        820
 4  CCOc1ccccc1[C@H]1[C@H](C(=O)C(C)(C)C)N2c3ccc(Br)cc3C=CC2C12C(=O)c1ccccc1C2=O (some centres undefined)          nM        850
 5  COc1ccc2nccc([C@@H](O)CN3CCC(NCc4ccc5c(c4)sc(=O)n5C)CC3)c2c1          nM        260
 6  OCCN1CCN(Cc2cccc(-c3cccc(-c4nc5ccc(F)cc5[nH]4)c3)c2)CC1          nM        710
 7  Cc1[nH]c(C)c(-c2ccc(-c3ccc(Cl)cc3)cc2)c(=O)c1Cl          nM        210
 8  Cc1ccc(N2CCN(C(=O)c3cccc(-c4cncc5nc(-c6ccco6)n(C)c45)c3)CC2)nc1          nM        600
 9  O=C(Nc1cc(C(F)(F)F)cc(C(F)(F)F)c1)Nc1ccc(Cl)c(Cl)c1          nM        240
10  Cc1cc(OCCCn2ccnc2)ccc1-c1csc(NC(N)=NCc2ccccc2)n1          nM        880
11  COc1ccccc1CNc1ccnc(N2CC(Oc3ccc(F)cc3)C2)n1          nM        850
12  O=C(NC1CC1)c1ccc(N2CCC(Cc3ccccc3)CC2)nc1          nM        760
13  CC1(C)N=C(NC(=O)Nc2ccc([N+](=O)[O-])cc2)N=C(N)N1OCc1cccc2ccccc12          nM         60
14  COc1ccc(-c2cc(C(=O)N[C@@H](CC3CCCCC3)C(=O)NC3CCCc4ccccc43)ccc2O)cc1 (some centres undefined)          nM        690
15  CCCCCC(C)N=C(Nc1ccc([N+](=O)[O-])cc1O)Nc1ccccc1Br (centres undefined)          nM        620
16  O=C(NC1CCC(CN2CCC(c3c[nH]c4ccccc34)CC2)CC1)c1cc(-c2ccccc2)c(C(F)(F)F)s1 (centres undefined)          nM        170
17  O=C(Nc1ccc(F)cc1F)NC1CCN(c2ccnc3cc(Cl)ccc23)C1 (centres undefined)          nM        250
18  COc1ccc(C[C@H]2NC[C@H](O)[C@H]2OC(C)=O)cc1          nM        140
19  CCc1cn2c3c(cc(C(=O)N[C@@H](Cc4cccc(Cl)c4)[C@H](O)CNC4CC4)cc13)N(C)S(=O)(=O)CC2          nM        150

---

Recorded IC50 for the following compounds
Tested on: P. falciparum 3D7 growth, pLDH absorbance
assayMethodText: blood-stage malaria parasite growth potency – strain 3D7, dose response (AID 2305)
property: IC50 (nM)

> print(dat)
                                   compound  testvalue
1  CO/C(=C\C=C\c1cc2cc(Cl)c(Cl)cc2[nH]1)C(=O)NC1CCN(CCNc2ccccc2)CC1        260
2  CCCc1ccc(NC(=O)c2cccc(CN3CCCN(Cc4cccc(C#N)c4)CC3)c2)cc1        980
3  CCOc1cc(C(=O)N[C@@H](Cc2ccccc2)[C@H](O)CNCc2cc(OC)cc(OC)c2)cc(N2CCCS2(=O)=O)c1        750
4  Cc1ccc(C)c(-n2c(SCC(=O)Nc3ccc(C(N)=O)cc3)nnc2-c2cccc(Cl)c2)c1        840
5  Cc1cccc2[nH]c(-c3cccc(-c4ccc(NC(=O)C(C)CN(C)C)cc4)c3)nc12 (centres undefined)        220
6          Cc1cc(Nc2ccc(O)cc2)nc2cccc(O)c12        740
7  COc1ccc(C(C(=O)NC2CCN(C[C@H](O)c3ccnc4ccc(OC)cc34)CC2)N2CCc3ccccc3C2)cc1 (some centres undefined)        700
8  C=CC[C@H](NC(=O)c1ccc(NS(=O)(=O)c2ccc3nc(N)[nH]c(=O)c3c2)cc1)C(=O)OCCCC        150
9  CC(=O)Nc1ccc(CN2CCc3ccc(NS(=O)(=O)c4cccc(OCc5ccc(Cl)cc5)c4)cc3CC2)s1        910

---

Tested on: P. falciparum 3D7 growth, pLDH absorbance
assayMethodText: blood-stage malaria parasite growth potency – strain 3D7, dose response (AID 2305)
property: IC50 (µM)

> print(dat)
                                    compound  testvalue
 1  COc1ccccc1/C=C/C(=O)NCCC1CCN(CCCCCNC(=O)/C=C/c2ccc(Cl)c(Cl)c2)CC1       0.81
 2  O=C(Nc1ccc(C(=O)OC[C@@H]2CCCN3CCCC[C@H]23)cc1)c1ccc([N+](=O)[O-])cc1       0.72
 3  O=S(=O)(Nc1ccc(CCN2CCC(N3CCCCC3)CC2)cc1)c1cccc(C(F)(F)F)c1        0.7
 4  C[C@H](Cc1ccc(OCCCCCCOc2ccccc2)cc1)NC[C@H](O)c1cccc(Cl)c1       0.07
 5  CC(C)(C)C1CC(=O)C[C@@H]2C(=O)N(c3ccc(Br)cc3)C(=O)[C@H]12 (stereo partly specified)       0.93
 6  O=C(c1cc(-c2cccs2)[nH]n1)N1CCN(S(=O)(=O)c2ccc(Cl)cc2)CC1       0.29
 7  CC1CCC(C[C@@H](C(=O)N[C@@H](CCC(=O)N2CCCCC2)C(=O)Nc2nccs2)[C@H](C(C)C)N(O)C=O)CC1 (stereo partly specified)       0.62
 8  COc1ccc(Cl)cc1NC(=O)CN(C)C(=O)c1cnn(-c2ccccc2)n1       0.23
 9  CN(C)CCCOc1ccc(CN2CC[C@H](NC(=O)c3ccc(Cl)c(Cl)c3)C2)cc1Cl       0.96
10  CN1C(=O)OC[C@@H]1Cc1ccc2[nH]cc(C3=CCN(Cc4ccccc4)CC3)c2c1       0.42
11  COc1ccc2c(c1)CCCC2NCCCCNC(=O)c1ccc(NC(=O)c2ccc(Cl)cc2)cc1 (stereo unspecified)       0.38
12  COc1ccccc1C1CCN(C2CCC(NC(=O)/C=C/c3cccc(Cl)c3)CC2)CC1 (stereo unspecified)       1.03
13  CCn1cc(-c2cc(C(=O)Nc3ccc(OC)cc3C)c3ccccc3n2)c(C)n1       0.98
14  Cc1cccc2[nH]c(-c3cccc(-c4cccc(NC(=O)Nc5ccc(Cl)c(Cl)c5)c4)c3)nc12       0.37
15  CN1CCCN(Cc2ccc(-c3cccc(NC(=O)c4cccc(F)c4)c3)cc2)CC1       0.98
16  Fc1cc(Cl)ccc1Nc1ccnc2cc(-c3ccc(CN4CCOCC4)o3)ccc12       0.64
17  Cc1cnccc1/C=C/c1cccc(OCCCN2CCc3ccc(S(C)(=O)=O)cc3CC2)c1       0.61
18  O=C(c1cc(C(=O)Nc2ccccc2)c(=O)n(-c2ccccc2)c1)c1cc(Cl)ccc1O       0.39
19  CC(C)C[C@H](Nc1ccnc(NCC2CCCCC2)n1)C(=O)NCCc1ccccc1       0.75
20  N#Cc1ccc(C2CCN(CC[C@H](N)Cc3ccc(Cl)s3)CC2)cc1       1.26
21  Cc1cc(-c2ccc(CNCc3ccsc3)cc2)ccc1S(=O)(=O)NCCN1CCCC1       0.72
22  Cc1ccc(C(C(=O)Nc2ccc(N3CCNCC3)c(Cl)c2)c2ccccc2)cc1 (stereo unspecified)       0.84
23  CCCCCC(C)C(C)c1cc(O)c2c(c1)O[C@@]1(C(C)C)CC(O)[C@H](C)[C@@H]2C1 (stereo partly specified)       0.99
24  CCCc1ccc(C(=O)N2[C@@H](c3nccs3)[C@@H](C(N)=O)C[C@@]2(CC(C)C)C(=O)O)cc1       0.16
25  COc1ccc2nccc([C@@H](O)CN3CC[C@H](NCc4nc5c(cc4Cl)OCC(=O)N5)[C@H](F)C3)c2c1       1.32
26  CCOC(=O)c1cn(CC)c2cc(N3CCCCCC3)c(F)cc2c1=O       0.41
27  O=C(COc1cnc2ccccc2n1)Nc1ccccc1Sc1ccc(Cl)cc1       0.73
28  Nc1ncc(-c2ccccc2)cc1-c1nc2cc(Cl)c(F)cc2[nH]1       0.26
29  COc1cc(O)c2c(=O)c(OC)c(-c3cccc(Cl)c3OC3O[C@H](CO)[C@@H](O)[C@H](O)[C@H]3O)oc2c1OC (stereo partly specified)       0.77
30  COc1cc(NC(=O)c2nn(CCCN3CCC4(CC3)C(=O)NCN4c3ccccc3)cc2-c2ccc(Cl)c(Cl)c2)cc(OC)c1OC       0.75
31  COC(=O)C(C)(C)Cc1c(SC(C)(C)C)c2cc(C(C)C)ccc2n1Cc1ccc(Cl)cc1       0.85
32  Clc1ccc2nccc(N3CCC(CN4CCC(c5c[nH]c6ccccc56)CC4)CC3)c2c1       0.03
33  CCn1ncc2c(N3CCCC3=O)cc(C(=O)N[C@@H](Cc3ccccc3)[C@H](O)CNC(C)(C)c3cccc(C(F)(F)F)c3)cc21       0.15
34  Cc1cccc2[nH]c(-c3cccc(-c4cccc(NC(=O)Cc5cnc[nH]5)c4)c3)nc12       0.67
35  Cn1cnc(CCNC(=O)c2cccc(-c3cccc(-c4nc5ccc(C(F)(F)F)cc5[nH]4)c3)c2)c1        0.7
36  Oc1ccc(CN2CC[C@@H](N3CCN(CCc4ccccc4)CC3)[C@H](O)C2)cc1Cl       0.87
